Recorded absorbance at 450 nm, one value per entry.
Biological target: T1, human CD40-Fc protein (amino acid residue 21-193 of SEQ ID NO: 67 linked to N-terminus of amino acid residue … (human, biotin-labeled in the capture ELISA and in the benchmark blocking ELISA; unlabeled when coated in the ligand blocking ELISA)
T1 construct: also called biotin-labeled human CD40-Fc; human CD40-Fc-biotin
T1 sequence (chain, as listed by the source): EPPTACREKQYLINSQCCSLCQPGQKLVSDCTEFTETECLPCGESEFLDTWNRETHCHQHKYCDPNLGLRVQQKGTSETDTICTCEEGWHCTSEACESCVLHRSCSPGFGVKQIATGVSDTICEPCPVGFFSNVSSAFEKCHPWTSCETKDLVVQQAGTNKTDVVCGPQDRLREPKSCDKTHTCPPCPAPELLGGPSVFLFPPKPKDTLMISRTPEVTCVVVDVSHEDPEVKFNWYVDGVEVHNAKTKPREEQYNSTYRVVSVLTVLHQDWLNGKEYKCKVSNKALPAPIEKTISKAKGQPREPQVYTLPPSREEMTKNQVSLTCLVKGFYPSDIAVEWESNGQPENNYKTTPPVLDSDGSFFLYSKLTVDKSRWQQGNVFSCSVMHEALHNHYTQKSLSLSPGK
Assay: capture ELISA, biotin human CD40-Fc; mAb at 0.64 ng/mL
Method: Plates were washed 4 times with wash buffer (PBS+0.05% Tween-20, PBST) and then blocked with 200 μl/well blocking buffer (5% w/v non-fatty milk in PBST) for 2 hours at 37° C. […] The reaction was stopped in 15 minutes at 25° C. with 50 μl/well 1M H₂SO₄, and the absorbance was read at 450 nm and plotted against antibody concentration. Data were analyzed using Graphpad Prism software and EC₅₀ values were reported.
Give just the numeric value; OD450 need not be written.

mouse anti-CD40 monoclonal antibody C1C1 (antibody, V domains shown, those are used here for the chimeric antibody only; also called Mouse C1C1; mouse C1C1) VH: EVKLVESGGGLVKPGASLKLSCAASGFTFSNYGMSWVRQNSDKRLEWVASISSGGDDTYYPDNVKGRCTISRENAKNTLYLEMSSLKTEDTALYYCTRAGGKAMDYWGQGTSVTVST VL: DIVLTQSPATLSVIPGNSVSLSCRASQSIRDNLHWYQQKSHESPRLLINYASQSISGIPSRFSGSGSGTDFTLTINSVETEDFGIYFCQQFNSWPLTFGGGTKLELK
0.142

Lab note: next binder to report on.
Need absorbance at 450 nm of humanized antibody huC1C1-V5 (antibody, human IgG1, kappa, V domains shown, Human IgG1/kappa; also called humanized C1C1-V5) VH: EVQLVESGGGVVQPGRSLRLSCAASGFTFSNYGMSWVRQAPGKGLEWVASISSGGDDTYYPDNVKGRCTISRDNSKNTLYLQMNSLRAEDTAVYYCTRAGGKAMDYWGQGTLVTVSS VL: EIVLTQSPATLSLSPGERATLSCRASQSIRDNLHWYQQKPGQSPRLLINYASQSISGIPARFSGSGSGTDFTLTISSLEPEDFAVYYCQQFNSWPLTFGQGTKVEIKR , thanks. 0.033
